Assay: Solubility of prostaglandin derivatives in 50 mM cyclodextrin derivative or water (Example 2)
Type: physicochemical
Conditions: 50 mM mono-6-desoxy-6-diaminopropyl-β-cyclodextrin solution, aqueous with cosolvent or surfactant or cyclodextrin; read-out: Solubility In 50 mM Mono-6-desoxy-6-diaminopropyl-β-cyclodextrin
measuredAttribute: solubility (µg/mL)

# compound, solubility / µg/mL
data = [
    ("CC(C)OC(=O)CCC/C=C\\C[C@@H]1[C@@H](/C=C/[C@@H](O)COc2cccc(C(F)(F)F)c2)[C@H](O)C[C@@H]1O [Travoprost]", 4940),
]

a. CC(C)OC(=O)CCC/C=C\C[C@@H]1C(CC[C@@H](O)CCc2ccccc2)[C@H](O)C[C@@H]1O (stereo partly drawn) [Latanoprost]
b. CCNC(=O)CCC/C=C\C[C@@H]1[C@@H](/C=C/[C@@H](O)CCc2ccccc2)[C@H](O)C[C@@H]1O [Bimatoprost]
Q: Compare the recorded solubility of a and b ; state which is larger. Pick one; state its label.
Ans: b
(b: 10700 µg/mL, a: 5900 µg/mL)

* * *

Assay: Solubilization of latanoprost by a library of cyclodextrin derivatives (Example 1)
Assay type: physicochemical
Settings: ultra-pure water, room temperature, dark, nitrogen; cyclodextrin derivative 115.58 mM : latanoprost 23.12 mM (5:1); 'No addition' = latanoprost alone (Exp. S0); read-out: Maximal Solubility of Latanoprost
measuredAttribute: solubility (µg/mL)
Numeric answer only, unit µg/mL assumed.

Q: // query solubility value for entry CC(C)OC(=O)CCC/C=C\C[C@@H]1C(CC[C@@H](O)CCc2ccccc2)[C@H](O)C[C@@H]1O (stereo partly shown)
Ans: 45

* * *

Assay: Solubility of prostaglandin derivatives in 50 mM cyclodextrin derivative or water (Example 2)
Assay type: physicochemical
Settings: 50 mM mono-6-desoxy-6-aminopropanol-β-cyclodextrin solution, aqueous with cosolvent or surfactant or cyclodextrin; read-out: Solubility In 50 mM Mono-6-desoxy-6-aminopropanol-β-cyclodextrin
measuredAttribute: solubility (µg/mL)

# molecule, unitAbbrev, solubility
rows = [
    ("CC(C)OC(=O)CCC/C=C\\C[C@@H]1C(CC[C@@H](O)CCc2ccccc2)[C@H](O)C[C@@H]1O (stereo partly drawn)", "µg/mL", 5720),
]

P. CC(C)OC(=O)CCC/C=C\C[C@@H]1[C@@H](/C=C/[C@@H](O)COc2cccc(C(F)(F)F)c2)[C@H](O)C[C@@H]1O
Q. CCNC(=O)CCC/C=C\C[C@@H]1[C@@H](/C=C/[C@@H](O)CCc2ccccc2)[C@H](O)C[C@@H]1O
Q: Between these two entries, P and Q , state which has the higher solubility. Indicate your choice by writing its label.
Ans: Q
(Q: 10800 µg/mL, P: 4950 µg/mL)

Each recorded value in this set is attributed to patent US20100130444A1.
